# systemUnderTest: Cdk2(T182C) (C177A) (Homo sapiens, UniProt P24941, C177A/T182C)
# Construct: poly-histidine; made in house; host or cells: E. coli
# procedureText: Kinetic thiol consumption assay with Cdk2 mutant T182C
# Format: binding
# Design: key: rate constant with Cdk2 ÷ rate constant with model thiol (fold)
# measurementParameters: Cdk2 T182C, additional mutation C177A
propertyMeasured: Rate enhancement, Cdk2 T182C
Reply: number alone, nothing else.

{"molecule": "C=CC(=O)Nc1nc2c(s1)CCCCCC2", "systemUnderTest": "Cdk2(T182C) (C177A) (Homo sapiens, UniProt P24941, C177A/T182C)", "reading": 5.267}
{"molecule": "C=CC(=O)N1CCN(c2cccc3cccnc23)CC1", "systemUnderTest": "Cdk2(T182C) (C177A) (Homo sapiens, UniProt P24941, C177A/T182C)", "reading": 4.097}
{"molecule": "C=CC(=O)NC1(C(N)=O)CCCCC1", "systemUnderTest": "Cdk2(T182C) (C177A) (Homo sapiens, UniProt P24941, C177A/T182C)", "reading": 0.5731}
{"molecule": "C=CC(=O)Nc1ccc(C(=O)NC2CCCC2)cc1", "systemUnderTest": "Cdk2(T182C) (C177A) (Homo sapiens, UniProt P24941, C177A/T182C)", "reading": 16.35}
{"molecule": "CN(C#N)Cc1ccccc1", "systemUnderTest": "Cdk2(T182C) (C177A) (Homo sapiens, UniProt P24941, C177A/T182C)", "reading": 1.07}

Name the recorded Rate enhancement, Cdk2 T182C of the item C=CC(=O)N1CCCC1c1ccc(OC)cc1 (stereo not drawn) in your answer.
5.254

Read off the recorded Rate enhancement, Cdk2 T182C for O=C(CCl)N1CCSc2ccccc21
0

For C=CC(=O)NC1C[C@@H](C(=C)C)CC=C1C (stereo partly drawn) , write its Rate enhancement, Cdk2 T182C.
1.829

Quote Rate enhancement, Cdk2 T182C reported for C=CC(=O)N1CCCC1c1cnc2ccccc2c1 (stereo not drawn) please.
1.7

Report measured Rate enhancement, Cdk2 T182C; entry is C=CC(=O)NC(Cc1ccccc1)C(O)CF (stereo not drawn)
0.1829

Give the value of Rate enhancement, Cdk2 T182C reported for the following: C=CC(=O)Nc1ccc(C(=O)OC)cc1
5.246

Quickly give me recorded Rate enhancement, Cdk2 T182C for C=CC(=O)N1CCCC1CC1CC2CCC1C2 (stereo not drawn)
6.465
